biological target: FABLE; assay: fluorescence titration, global single-site fit; assay type: binding, synthetic construct
ENDPOINT NAME: Kd (µM)
Give just the number in µM; leave the unit off.

# lookup: Kd of CN(C)c1ccc2c(C(F)(F)F)cc(=O)oc2c1
27.8

* * *

target: FABLE; experiment: fluorescence titration, single-site binding model; parameters: species or system synthetic construct
The following compounds are listed with their measured Kd values.
Give just the number in µM; leave the unit off.

# COMPOUND, Kd (µM)
measured = [
    ("O=c1cc(C(F)(F)F)c2cc3c4c(c2o1)CCCN4CCC3 [Cou540a]", 2),
]

We next turn to a different compound, shown below.
# lookup: Kd of CCN(CC)c1ccc2c(C(F)(F)F)cc(=O)oc2c1
5.8
